assay: Metabolic stability in human liver microsomes assessed as compound remaining after 15 mins by LC-MS/MS analysis; type: ADME, Microsome; conditions: read-out: Stability
measurement.type: remaining at 0.25 h

molecule	measurement.type	measured.value
CC1(C)C(=O)N(c2ccc(C#N)c(Cl)c2)C(=S)N1c1cncc(S(N)(=O)=O)c1	remaining at 0.25 h	95%
CC1(C)C(=O)N(c2ccc(C#N)c(Cl)c2)C(=S)N1CCCS(N)(=O)=O	remaining at 0.25 h	100%
CC1(C)C(=O)N(c2ccc(C#N)c(C(F)(F)F)c2)C(=S)N1c1ccccc1	remaining at 0.25 h	80%
CC1(C)C(=O)N(c2ccc(C#N)c(Cl)c2)C(=S)N1c1cccc(S(N)(=O)=O)c1	remaining at 0.25 h	100%
CC(O)(CS(=O)(=O)c1ccc(F)cc1)C(=O)Nc1ccc(C#N)c(C(F)(F)F)c1 (stereo not given) [BICALUTAMIDE]	remaining at 0.25 h	99%
CC1(C)C(=O)N(c2ccc(C#N)c(C(F)(F)F)c2)C(=S)N1c1cccc(S(N)(=O)=O)c1	remaining at 0.25 h	100%
CC1(C)C(=O)N(c2ccc(C#N)c(Cl)c2)C(=S)N1c1cccc(S(N)(=O)=O)n1	remaining at 0.25 h	100%
CC1(C)C(=O)N(c2ccc(C#N)c(C(F)(F)F)c2)C(=S)N1c1cncc(S(N)(=O)=O)c1	remaining at 0.25 h	95%
CC1(C)C(=O)N(c2ccc(C#N)c(C(F)(F)F)c2)C(=S)N1c1cccc(S(N)(=O)=O)n1	remaining at 0.25 h	94%
CC1(C)C(=O)N(c2ccc(C#N)c(C(F)(F)F)c2)C(=S)N1c1ccnc(S(N)(=O)=O)c1	remaining at 0.25 h	97%
